FYI, the data here is from paper PMC4425807.

- experiment.notes: Brain drug concentrations 60 min after single oral dose (LC-MS/MS)
- Type: in vivo, rat
- condition: Sprague-Dawley, rat, brain, oral, phentermine 1 mg/kg PO with AR630 1 mg/kg, 60 min, rat, mean ± SEM; read-out: Brain concentration, combination

compound: CC(C)(N)Cc1ccccc1 [Phentermine]
concentration at 60 min [ng/g]: 866

---

- target.desc: 5-HT2B (Homo sapiens)

sample.smiles: C[C@@H]1CNCCN1c1cc(Cl)ccc1F
Ki (nM): 100

---

- target.desc: 5-HT2A (Homo sapiens, UniProt P28223)
- Sequence (P28223 whole entry): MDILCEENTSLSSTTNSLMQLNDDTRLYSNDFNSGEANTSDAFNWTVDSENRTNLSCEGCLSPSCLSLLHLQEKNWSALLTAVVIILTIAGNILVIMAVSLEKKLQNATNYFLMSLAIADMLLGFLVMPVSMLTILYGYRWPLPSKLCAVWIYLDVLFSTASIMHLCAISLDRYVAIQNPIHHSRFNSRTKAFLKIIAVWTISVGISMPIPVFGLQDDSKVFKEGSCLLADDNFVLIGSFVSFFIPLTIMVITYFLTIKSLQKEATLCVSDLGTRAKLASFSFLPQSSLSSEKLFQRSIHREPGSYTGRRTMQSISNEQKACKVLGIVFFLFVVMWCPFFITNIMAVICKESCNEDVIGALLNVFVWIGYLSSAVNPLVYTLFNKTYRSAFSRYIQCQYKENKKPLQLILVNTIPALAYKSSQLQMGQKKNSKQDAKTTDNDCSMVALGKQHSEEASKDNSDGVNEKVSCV

sample.smiles: C[C@@H]1CNCCN1c1cc(Cl)ccc1F
display.unit: nM
Ki: 120

---

- experiment.notes: Brain drug concentrations 60 min after single oral dose (LC-MS/MS)
- Type: in vivo, rat
- condition: Sprague-Dawley, rat, brain, oral, 1 mg/kg, phentermine 1 mg/kg PO alone, 60 min, rat, dexfenfluramine study, mean ± SEM; read-out: Brain concentration, alone
- Protocol: In vivo methods employed for pharmacokinetic studies were identical to those described for food intake studies except that after dosing, rats were not placed into new cages with grid floors. […] Brain samples were thawed on ice, placed into 50 mL plastic conical tubes, and two volumes of purified water/gram of brain was added. […] Supernatants were analysed for lorcaserin, AR630, phentermine, dexfenfluramine, and the major metabolite of dexfenfluramine, norfenfluramine. […]
measured.parameter: concentration at 60 min (ng/g)

compound: CC(C)(N)Cc1ccccc1 [Phentermine]
readout.number: 298

---

- experiment.notes: Brain drug concentrations 60 min after single oral dose (LC-MS/MS)
- Format: in vivo, rat
- condition: Sprague-Dawley, rat, brain, po, 1 mg/kg, AR630 1 mg/kg PO alone, 60 min, rat, mean ± SEM; read-out: Brain concentration, alone
- Procedure: In vivo methods employed for pharmacokinetic studies were identical to those described for food intake studies except that after dosing, rats were not placed into new cages with grid floors. […] Brain samples were thawed on ice, placed into 50 mL plastic conical tubes, and two volumes of purified water/gram of brain was added. […] Supernatants were analysed for lorcaserin, AR630, phentermine, dexfenfluramine, and the major metabolite of dexfenfluramine, norfenfluramine. […]

sample.smiles: C[C@@H]1CNCCN1c1cc(Cl)ccc1F
concentration at 60 min, ng/g: 82

---

- experiment.notes: Brain drug concentrations 60 min after single oral dose (LC-MS/MS)
- Type: in vivo, rat
- condition: Sprague-Dawley, rat, brain, oral, phentermine 1 mg/kg PO with lorcaserin 1 mg/kg, 60 min, rat, mean ± SEM; read-out: Brain concentration, combination
measured.parameter: concentration at 60 min

sample.smiles: CC(C)(N)Cc1ccccc1
result: 335 ng/g

---

- target.desc: UniProtKB P28335
- Sequence (P28335 33-458, species assumed): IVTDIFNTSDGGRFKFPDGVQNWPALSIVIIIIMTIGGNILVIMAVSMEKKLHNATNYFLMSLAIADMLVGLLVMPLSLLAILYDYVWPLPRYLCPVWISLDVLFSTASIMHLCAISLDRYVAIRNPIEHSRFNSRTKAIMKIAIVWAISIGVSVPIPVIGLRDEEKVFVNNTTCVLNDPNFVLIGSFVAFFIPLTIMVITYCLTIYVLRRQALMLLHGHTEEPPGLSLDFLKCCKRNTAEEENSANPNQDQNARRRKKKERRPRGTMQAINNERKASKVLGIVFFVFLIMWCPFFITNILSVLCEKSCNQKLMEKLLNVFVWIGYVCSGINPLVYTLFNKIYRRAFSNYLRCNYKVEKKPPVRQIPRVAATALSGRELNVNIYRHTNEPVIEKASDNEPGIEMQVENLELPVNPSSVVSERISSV
- experiment.notes: Functional activity at 5-HT2C
- condition: internally generated data
measured.parameter: EC50 (nM)

sample.smiles: C[C@@H]1CNCCN1c1cc(Cl)ccc1F
measured.parameter: EC50
display.unit: nM
readout.number: 10

---

- experiment.notes: Brain drug concentrations 60 min after single oral dose (LC-MS/MS)
- Format: in vivo, rat
- condition: Sprague-Dawley, rat, brain, oral, 1 mg/kg, phentermine 1 mg/kg PO alone, 60 min, rat, lorcaserin study, mean ± SEM; read-out: Brain concentration, alone

sample.smiles: CC(C)(N)Cc1ccccc1
concentration at 60 min / ng/g: 298

---

- target.desc: 5-HT2B (Homo sapiens, UniProt P41595)
- Sequence (P41595 whole entry, species assumed): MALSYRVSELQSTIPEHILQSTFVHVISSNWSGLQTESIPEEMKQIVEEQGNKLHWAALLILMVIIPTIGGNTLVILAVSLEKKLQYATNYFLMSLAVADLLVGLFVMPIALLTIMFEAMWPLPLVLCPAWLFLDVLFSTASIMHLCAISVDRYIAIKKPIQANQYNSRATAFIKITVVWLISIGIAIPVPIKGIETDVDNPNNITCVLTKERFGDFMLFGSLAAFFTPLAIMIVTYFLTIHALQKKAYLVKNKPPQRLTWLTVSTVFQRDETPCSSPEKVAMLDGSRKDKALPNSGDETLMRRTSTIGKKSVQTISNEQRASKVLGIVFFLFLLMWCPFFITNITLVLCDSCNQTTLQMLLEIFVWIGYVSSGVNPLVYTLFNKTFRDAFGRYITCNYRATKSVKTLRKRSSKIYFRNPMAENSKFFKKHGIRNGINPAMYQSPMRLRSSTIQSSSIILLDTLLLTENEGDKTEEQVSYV
- experiment.notes: Functional activity at 5-HT2B
- condition: internally generated data
pEC50: −log10 of the molar value.

sample.smiles: C[C@@H]1CNCCN1c1cc(Cl)ccc1F
pEC50: 6.00
